B1: Double-stranded RNA-binding protein Staufen homolog 1, residues 183 to 249; numbered along this chain, O95793 (parent)
chain: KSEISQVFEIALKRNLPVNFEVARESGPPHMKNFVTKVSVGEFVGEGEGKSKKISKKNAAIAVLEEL

Variants of: B1
Assay: abundance fitness (aPCA) (normalised: wild type 0, dead -1); higher = more abundant; growth selection in yeast, the domain comes from the species named
Details: Homo sapiens
Classification scheme (abundance fitness): lower bin (below -0.4), middle bin (-0.4 to below -0.1), upper bin (-0.1 or more)

[
  {
    "MUTATION CODE": "E42Q",
    "CAT": "upper bin"
  },
  {
    "MUTATION CODE": "F34D",
    "CAT": "lower bin"
  },
  {
    "MUTATION CODE": "K32L",
    "CAT": "middle bin"
  },
  {
    "MUTATION CODE": "R24T",
    "CAT": "upper bin"
  },
  {
    "MUTATION CODE": "F20S",
    "CAT": "lower bin"
  },
  {
    "MUTATION CODE": "A60H",
    "CAT": "lower bin"
  },
  {
    "MUTATION CODE": "E42R",
    "CAT": "upper bin"
  },
  {
    "MUTATION CODE": "V63M",
    "CAT": "middle bin"
  },
  {
    "MUTATION CODE": "G45H",
    "CAT": "lower bin"
  },
  {
    "MUTATION CODE": "F8R",
    "CAT": "middle bin"
  },
  {
    "MUTATION CODE": "F34H",
    "CAT": "lower bin"
  },
  {
    "MUTATION CODE": "V63D",
    "CAT": "lower bin"
  },
  {
    "MUTATION CODE": "N33I",
    "CAT": "middle bin"
  },
  {
    "MUTATION CODE": "I54W",
    "CAT": "lower bin"
  },
  {
    "MUTATION CODE": "K53T",
    "CAT": "middle bin"
  },
  {
    "MUTATION CODE": "E46W",
    "CAT": "upper bin"
  },
  {
    "MUTATION CODE": "K56D",
    "CAT": "lower bin"
  },
  {
    "MUTATION CODE": "F8W",
    "CAT": "upper bin"
  },
  {
    "MUTATION CODE": "V40A",
    "CAT": "lower bin"
  },
  {
    "MUTATION CODE": "L67V",
    "CAT": "lower bin"
  },
  {
    "MUTATION CODE": "V35L",
    "CAT": "upper bin"
  },
  {
    "MUTATION CODE": "T36C",
    "CAT": "upper bin"
  },
  {
    "MUTATION CODE": "P29E",
    "CAT": "upper bin"
  },
  {
    "MUTATION CODE": "E9W",
    "CAT": "lower bin"
  },
  {
    "MUTATION CODE": "A23C",
    "CAT": "upper bin"
  },
  {
    "MUTATION CODE": "A23Q",
    "CAT": "upper bin"
  },
  {
    "MUTATION CODE": "F43K",
    "CAT": "middle bin"
  },
  {
    "MUTATION CODE": "E65Y",
    "CAT": "middle bin"
  },
  {
    "MUTATION CODE": "I54Q",
    "CAT": "upper bin"
  },
  {
    "MUTATION CODE": "I54H",
    "CAT": "middle bin"
  },
  {
    "MUTATION CODE": "N33D",
    "CAT": "middle bin"
  },
  {
    "MUTATION CODE": "K56V",
    "CAT": "middle bin"
  },
  {
    "MUTATION CODE": "A11F",
    "CAT": "lower bin"
  },
  {
    "MUTATION CODE": "K53G",
    "CAT": "middle bin"
  },
  {
    "MUTATION CODE": "G41W",
    "CAT": "lower bin"
  },
  {
    "MUTATION CODE": "G49P",
    "CAT": "lower bin"
  },
  {
    "MUTATION CODE": "V40I",
    "CAT": "lower bin"
  },
  {
    "MUTATION CODE": "N19I",
    "CAT": "middle bin"
  },
  {
    "MUTATION CODE": "K32T",
    "CAT": "middle bin"
  },
  {
    "MUTATION CODE": "V44S",
    "CAT": "upper bin"
  },
  {
    "MUTATION CODE": "I61K",
    "CAT": "upper bin"
  },
  {
    "MUTATION CODE": "K32D",
    "CAT": "middle bin"
  },
  {
    "MUTATION CODE": "K53L",
    "CAT": "middle bin"
  }
]
